Subject Of Test: T1, cynomolgus monkey GPVI extracellular domain fused at its C-terminus to human IgG1 Fc (GPVI-Fc) (cynomolgus monkey; human)
T1 construct: also called cyGPVI-2; cyGPVI
Assay Comment: Competition ELISA (MSD): cynomolgus GPVI-Fc preincubated with Fab, then on coated VitroCol (competitor)
Measure Name: pIC50
Convention used: pIC50 is expressed as -log10 of the molar concentration.

The reported pIC50 of the binder Reference Control Antibody RefFab #1 (humanized GPVI antibody of WO2011073954A2, SANOFI) (Fab, V domains shown, Cloned into mammalian Fab expression vectors; a glycine-serine linker (G4S)2 was added to the C-terminus of the Fab heavy chain) VH: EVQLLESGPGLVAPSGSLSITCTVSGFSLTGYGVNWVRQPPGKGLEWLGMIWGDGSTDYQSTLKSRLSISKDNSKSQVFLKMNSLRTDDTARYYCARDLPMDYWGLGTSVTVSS VL: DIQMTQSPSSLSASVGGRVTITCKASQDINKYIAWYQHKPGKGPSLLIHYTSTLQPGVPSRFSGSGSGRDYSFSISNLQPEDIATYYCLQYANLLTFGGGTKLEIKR was 8.26

Looking up Fab #3 comprising a modified heavy chain constant region (Fab, V domains shown, Human Fab from the Ylanthia library; produced in HKB11 cells; also called Fab #3 mod; HC) VH: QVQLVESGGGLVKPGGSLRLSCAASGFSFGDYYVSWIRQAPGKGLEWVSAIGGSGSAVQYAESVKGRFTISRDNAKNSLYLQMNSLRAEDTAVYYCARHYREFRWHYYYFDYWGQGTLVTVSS VL: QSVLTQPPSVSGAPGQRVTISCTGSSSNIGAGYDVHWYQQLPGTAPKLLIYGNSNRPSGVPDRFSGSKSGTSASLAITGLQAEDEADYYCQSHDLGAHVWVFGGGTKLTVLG , I found its pIC50 recorded as 8.33

Entry Fab #2 comprising a modified heavy chain constant region (Fab, V domains shown, Human Fab from the Ylanthia library; produced in HKB11 cells; also called Fab #2 mod; HC) VH: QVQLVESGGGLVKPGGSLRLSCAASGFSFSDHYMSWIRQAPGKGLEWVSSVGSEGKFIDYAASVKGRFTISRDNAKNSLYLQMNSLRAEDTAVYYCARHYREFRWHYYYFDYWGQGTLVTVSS VL: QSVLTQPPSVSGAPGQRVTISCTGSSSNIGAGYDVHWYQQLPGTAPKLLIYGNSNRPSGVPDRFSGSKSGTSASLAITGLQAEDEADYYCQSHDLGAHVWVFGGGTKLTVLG — recorded pIC50 = 8.37
